# system.name: hERG potassium channel (Homo sapiens)
# Construct: host or cells: CHO
# Sequence (Q12809 whole entry): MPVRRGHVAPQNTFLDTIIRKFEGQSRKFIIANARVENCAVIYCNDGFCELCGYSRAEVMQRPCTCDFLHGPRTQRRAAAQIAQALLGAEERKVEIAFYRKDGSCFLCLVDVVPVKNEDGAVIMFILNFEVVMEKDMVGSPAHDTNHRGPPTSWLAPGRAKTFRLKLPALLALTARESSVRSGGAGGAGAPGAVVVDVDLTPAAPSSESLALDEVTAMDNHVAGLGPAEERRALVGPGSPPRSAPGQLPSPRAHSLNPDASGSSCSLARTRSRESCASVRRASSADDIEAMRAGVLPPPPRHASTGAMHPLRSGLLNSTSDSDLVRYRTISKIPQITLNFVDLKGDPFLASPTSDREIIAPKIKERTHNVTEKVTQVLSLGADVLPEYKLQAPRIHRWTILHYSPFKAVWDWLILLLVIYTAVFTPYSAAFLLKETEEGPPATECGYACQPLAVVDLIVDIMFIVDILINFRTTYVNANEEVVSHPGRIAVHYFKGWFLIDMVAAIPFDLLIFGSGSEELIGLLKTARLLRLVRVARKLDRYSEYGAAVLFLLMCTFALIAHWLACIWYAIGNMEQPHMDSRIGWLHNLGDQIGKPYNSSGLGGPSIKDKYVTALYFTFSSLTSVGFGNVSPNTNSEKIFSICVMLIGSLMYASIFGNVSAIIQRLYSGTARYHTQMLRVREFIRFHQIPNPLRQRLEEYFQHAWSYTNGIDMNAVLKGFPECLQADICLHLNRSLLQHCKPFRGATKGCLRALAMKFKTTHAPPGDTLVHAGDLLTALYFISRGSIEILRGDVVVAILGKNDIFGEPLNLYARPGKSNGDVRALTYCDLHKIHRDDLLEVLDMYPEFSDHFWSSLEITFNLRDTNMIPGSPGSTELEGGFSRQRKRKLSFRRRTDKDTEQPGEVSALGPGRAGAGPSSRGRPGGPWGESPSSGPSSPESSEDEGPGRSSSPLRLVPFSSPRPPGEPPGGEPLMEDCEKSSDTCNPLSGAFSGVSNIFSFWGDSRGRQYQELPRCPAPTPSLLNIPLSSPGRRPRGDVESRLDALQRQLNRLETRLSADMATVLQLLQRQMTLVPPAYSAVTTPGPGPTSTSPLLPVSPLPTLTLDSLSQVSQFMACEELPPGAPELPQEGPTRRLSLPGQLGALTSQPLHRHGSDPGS
# measurement.protocol: Manual patch-clamp of hERG potassium currents in CHO cells stably expressing hERG channel
# Format: cell-based
# condition.notes: read-out: IC50(μM), blocking effect on the hERG potassium ion channel
test.readout: IC50

Q) May I ask what IC50 has been recorded for Cc1nc(N[C@H](C)c2cccc(C(F)F)c2F)c2cc([C@]3(O)CC[C@@H](O)CC3)c(=O)[nH]c2n1 [Example 18-p1] ?
A) > 30 µM

###

# System: H358 cells
# measurement.protocol: Inhibition of proliferation of H358 cells (CellTiter-Glo 3D)
# Format: cell-based
# condition.notes: Homo sapiens, NCI-H358, low adsorption plate, 120 h
# Procedure: This example is intended to evaluate the inhibition effect of the compounds of the present disclosure on the KRAS target (containing the G12C mutation) by testing the inhibition effect of the compounds of the present disclosure on the proliferation of H358 cells. […] IC50 values for the inhibitory activity of the compounds were calculated using Graphpad Prism software.
This listing pairs molecules with measured IC50.
The response must be a number in nM with no trailing unit.

A selection of reference data follows.
{"molecule": "Cc1nc(N[C@H](C)c2cccc(C(F)F)c2F)c2cc(OC3CN(C(=O)CF)C3)c(=O)[nH]c2n1", "IC50 [nM]": 202}
{"molecule": "Cc1nc(N[C@H](C)c2cccc(C(F)(F)CO)c2F)c2cc(C3=CCOCC3)c(=O)[nH]c2n1", "IC50 [nM]": 34}
{"molecule": "Cc1nc(N[C@H](C)c2cccc(C(F)F)c2F)c2cc(C3=CCC(C(=O)N(C)C)CC3)c(=O)[nH]c2n1 (stereo partly shown)", "IC50 [nM]": 137}
{"molecule": "Cc1nc(N[C@H](C)c2cccc(C(F)F)c2F)c2cc([C@]3(O)CC[C@@H](O)CC3)c(=O)[nH]c2n1 [Example 18-p1]", "IC50 [nM]": 72}
{"molecule": "Cc1nc(N[C@H](C)c2cccc(C(F)(F)CO)c2F)c2cc(OC3CCOC3)c(=O)[nH]c2n1 (stereo partly shown)", "IC50 [nM]": 106}

Q) May I ask what IC50 has been recorded for Cc1nc(N[C@H](C)c2cccc3c2OCC3(F)F)c2cc([C@]3(O)CC[C@@H](O)CC3)c(=O)[nH]c2n1 (racemic) [Example 25-p1] ?
A) 120

Q) May I ask what IC50 has been recorded for CC(=O)N1CC(Oc2cc3c(N[C@H](C)c4cccc(C(F)F)c4F)nc(C)nc3[nH]c2=O)C1 (racemic) ?
A) 346

###

# measurement.protocol: Pharmacokinetic evaluation in nude mice
# Assay type: in vivo
# condition.notes: female, mouse, plasma, po; BALB/C nude mice, intragastric administration, 50 mg/kg; read-out: Plasma concentration Cmax
test.readout: Cmax
Please don't drop the unit; write it after the number.

Q) May I ask what Cmax has been recorded for Cc1nc(N[C@H](C)c2cccc(C(F)F)c2F)c2cc([C@]3(O)CC[C@@H](O)CC3)c(=O)[nH]c2n1 [Example 18-p1] ?
A) 1560 ng/mL

###

# measurement.protocol: Pharmacokinetic evaluation in nude mice
# Type: in vivo
# condition.notes: female, mouse, plasma, po; BALB/C nude mice, intragastric administration, 50 mg/kg; read-out: Area under curve AUC0-t
test.readout: AUC(0-t)

Q) May I ask what AUC(0-t) has been recorded for Cc1nc(N[C@H](C)c2cccc(C(F)F)c2F)c2cc([C@]3(O)CC[C@@H](O)CC3)c(=O)[nH]c2n1 [Example 18-p1] ?
A) 5150 ng·h/mL

###

# measurement.protocol: Pharmacokinetic evaluation in mice
# Format: in vivo
# condition.notes: female, mouse, plasma, po; C57 mice, intragastric administration, 2 mg/kg; read-out: Plasma concentration Cmax
test.readout: Cmax (ng/mL)
The response must be a number in ng/mL with no trailing unit.

Q) May I ask what Cmax has been recorded for Cc1nc(N[C@H](C)c2cccc(C(F)F)c2F)c2cc([C@]3(O)CC[C@@H](O)CC3)c(=O)[nH]c2n1 [Example 18-p1] ?
A) 56.7

###

This listing pairs compounds with measured IC50.
# Test system: ERK phosphorylation of H358 cells
# measurement.protocol: Inhibition of ERK phosphorylation of H358 cells (HTRF pERK/total ERK)
# Format: cell-based
# condition.notes: Homo sapiens, NCI-H358, 1 h incubation, pERK/total ERK ratio
The response must be a number in nM with no trailing unit.

{"compound": "Cc1nc(N[C@H](C)c2cccc(C(F)F)c2F)c2cc([C@]3(O)CC[C@@H](O)CC3)c(=O)n(C)c2n1 [Example 28-p1]", "system.name": "ERK phosphorylation of H358 cells", "value.units": "nM", "IC50": 231}
{"compound": "COCC(=O)N1CCC(c2cc3c(N[C@H](C)c4cccc(C(F)F)c4F)nc(C)nc3[nH]c2=O)CC1", "system.name": "ERK phosphorylation of H358 cells", "value.units": "nM", "IC50": 78}
{"compound": "Cc1nc(N[C@H](C)c2cc(N)cc(C(F)(F)F)c2)c2cc(C3=CCOCC3)c(=O)[nH]c2n1", "system.name": "ERK phosphorylation of H358 cells", "value.units": "nM", "IC50": 55}
{"compound": "Cc1nc(N[C@H](C)c2cccc(C(F)F)c2F)c2cc([C@]3(O)CC[C@H](O)CC3)c(=O)n(C)c2n1 [Example 28-p2]", "system.name": "ERK phosphorylation of H358 cells", "value.units": "nM", "IC50": 937}
{"compound": "Cc1nc(N[C@H](C)c2cccc(C(F)F)c2F)c2cc([C@]3(O)CC[C@@H](O)CC3)c(=O)[nH]c2n1 [Example 18-p1]", "system.name": "ERK phosphorylation of H358 cells", "value.units": "nM", "IC50": 51}

Q) May I ask what IC50 has been recorded for Cc1nc(N[C@H](C)c2cccc(C(F)F)c2F)c2cc(C3(O)CCN(C(=O)CC#N)CC3)c(=O)[nH]c2n1 ?
A) 87

Q) May I ask what IC50 has been recorded for CC(=O)N1CC=C(c2cc3c(N[C@H](C)c4cc(N)cc(C(F)(F)F)c4)nc(C)nc3[nH]c2=O)CC1 ?
A) 41

###

# Tested on: ERK phosphorylation of H358 cells
# measurement.protocol: Inhibition of ERK phosphorylation of H358 cells (HTRF pERK/total ERK)
# Assay type: cell-based
# condition.notes: Homo sapiens, NCI-H358, 1 h incubation, pERK/total ERK ratio
This listing pairs compounds with measured IC50.
The response must be a number in nM with no trailing unit.

Q) May I ask what IC50 has been recorded for Cc1nc(N[C@H](C)c2cccc(C(F)F)c2F)c2cc(N3CCOCC3)c(=O)[nH]c2n1 [Example 16] ?
A) 218

Q) May I ask what IC50 has been recorded for Cc1nc(N[C@H](C)c2cccc(C(F)F)c2F)c2cc([C@]3(O)CC[C@H](O)CC3)c(=O)[nH]c2n1 [Example 18-p2] ?
A) 222

Q) May I ask what IC50 has been recorded for Cc1nc(N[C@H](C)c2cccc(C(F)F)c2F)c2cc(C3CCN(C(=O)CC#N)CC3)c(=O)[nH]c2n1 [Example 17] ?
A) 79

Q) May I ask what IC50 has been recorded for CC(=O)N1CCC(O)(c2cc3c(N[C@H](C)c4cccc(C(F)F)c4F)nc(C)nc3[nH]c2=O)CC1 [Example 12] ?
A) 48

###

# measurement.protocol: Pharmacokinetic evaluation in mice
# Format: in vivo
# condition.notes: female, mouse, plasma, po; C57 mice, intragastric administration, 2 mg/kg; read-out: Area under curve AUC0-t
test.readout: AUC(0-t) (ng·h/mL)
The response must be a number in ng·h/mL with no trailing unit.

Q) May I ask what AUC(0-t) has been recorded for Cc1nc(N[C@H](C)c2cccc(C(F)F)c2F)c2cc([C@]3(O)CC[C@@H](O)CC3)c(=O)[nH]c2n1 [Example 18-p1] ?
A) 146

###

# system.name: interaction between the KRAS protein subtype G12V and the SOS1 protein (Homo sapiens)
# Construct: GST-TEV-SOS1(564-1049) (Viva Biotech, SOS1-191010); purchased SOS1: Viva Biotech; KRAS: Shanghai Panchao Biotechnology Co., Ltd. SOS1-191010
# Sequence (Q07889 564-1049, stated change not applied): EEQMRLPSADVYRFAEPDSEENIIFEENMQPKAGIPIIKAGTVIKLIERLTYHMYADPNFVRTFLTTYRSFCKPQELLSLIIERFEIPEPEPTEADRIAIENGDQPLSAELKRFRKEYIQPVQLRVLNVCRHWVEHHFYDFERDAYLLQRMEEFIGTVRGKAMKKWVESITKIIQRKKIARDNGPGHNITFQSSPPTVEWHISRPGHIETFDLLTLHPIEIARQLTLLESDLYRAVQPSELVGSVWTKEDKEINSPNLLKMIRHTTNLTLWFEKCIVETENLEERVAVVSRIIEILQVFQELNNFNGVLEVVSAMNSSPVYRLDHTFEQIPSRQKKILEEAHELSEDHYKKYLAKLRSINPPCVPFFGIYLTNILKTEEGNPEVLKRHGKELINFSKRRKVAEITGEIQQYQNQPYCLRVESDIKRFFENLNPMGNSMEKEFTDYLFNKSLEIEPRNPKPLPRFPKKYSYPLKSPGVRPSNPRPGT
# measurement.protocol: Inhibition of the interaction between KRAS G12V and SOS1 protein (AlphaLISA/AlphaScreen)
# Type: binding
# condition.notes: KRAS G12V + GST-TEV-SOS1(564-1049) + GDP
This listing pairs compounds with measured IC50.
The response must be a number in nM with no trailing unit.

A selection of reference data follows.
{"compound": "Cc1nc(N[C@H](C)c2cccc(C(F)F)c2F)c2cc([C@]3(O)CC[C@@H](O)CC3)c(=O)[nH]c2n1 [Example 18-p1]", "numeric.readout": 67}
{"compound": "Cc1nc(N[C@H](C)c2cccc(C(F)F)c2F)c2cc(C3CCOCC3)c(=O)[nH]c2n1", "numeric.readout": 56}
{"compound": "Cc1nc(N[C@H](C)c2cccc(C(F)F)c2F)c2cc(C3=CCOCC3)c(=O)[nH]c2n1", "numeric.readout": 79}

Turning to the following compound.
Q) May I ask what IC50 has been recorded for Cc1nc(N[C@H](C)c2cccc(C(F)F)c2F)c2cc(C3(O)CCN(C(=O)CC#N)CC3)c(=O)[nH]c2n1 ?
A) 54
